The reported numbers originate from patent EP0072761B1.

molecular target: Ornithine decarboxylase (ODC) (Rattus norvegicus, UniProt P09057); construct: is prepared from the livers of rats which have been injected with thioacetamide; from tissue; host or cells: rat liver (thioacetamide-induced); assay: In vitro time-dependent inhibition of ornithine decarboxylase (14CO2 release from DL-[1-14C]ornithine; Kitz and Wilson analysis); assay type: biochemical, rats; conditions: half-life at infinite concentration of inhibitor; calculated by method of Kitz and Wilson; rat liver ODC, 37°
Sequence (P09057 whole entry): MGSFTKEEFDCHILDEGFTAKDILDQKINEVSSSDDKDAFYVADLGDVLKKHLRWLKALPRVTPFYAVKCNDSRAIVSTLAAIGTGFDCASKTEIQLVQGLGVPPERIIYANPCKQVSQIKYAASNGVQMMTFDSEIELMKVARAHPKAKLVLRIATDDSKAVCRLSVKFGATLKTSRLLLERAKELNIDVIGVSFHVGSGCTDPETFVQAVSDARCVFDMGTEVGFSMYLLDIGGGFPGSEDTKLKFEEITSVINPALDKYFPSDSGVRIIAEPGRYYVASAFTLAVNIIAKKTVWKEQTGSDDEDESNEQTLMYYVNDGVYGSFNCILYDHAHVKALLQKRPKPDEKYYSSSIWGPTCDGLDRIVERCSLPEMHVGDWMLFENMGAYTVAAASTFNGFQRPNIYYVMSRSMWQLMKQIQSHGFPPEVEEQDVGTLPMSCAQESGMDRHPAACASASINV
Returns one of met or not met; met when ODC τ50 is >= 3 min.

Past entries and their recorded results:
> print(dat)
                                   molecule                              testedtarget  assignedclass
1         C=C(CN)CC(N)CF (centres unmarked)  Ornithine decarboxylase (ODC) (Rattus norvegicus, UniProt P09057)        not met
2         NCC(=O)CC(N)CF (centres unmarked)  Ornithine decarboxylase (ODC) (Rattus norvegicus, UniProt P09057)        not met
3  C=C(CN)CC(N)(CF)C(=O)O (centres unmarked)  Ornithine decarboxylase (ODC) (Rattus norvegicus, UniProt P09057)            met
4  NCC(=O)CC(N)(CF)C(=O)O (centres unmarked)  Ornithine decarboxylase (ODC) (Rattus norvegicus, UniProt P09057)            met

With those in mind, consider the next molecule.
Exam item: In plain terms: is recorded ODC τ50 at least 3 min for C=C(CN)CC(N)C(F)F (centres unmarked) ?
Marked response: not met
